Test system: HCT-116
Assay: NCI tumour cell line growth inhibition, 48 h
Activity calls are given as the source filed them. No stated cut-off is given here; in the data, active = GI50 up to about 1.1 µM and inactive = higher.
Observation Type: GI50

Would you please look over these solved cases?
COCN1C(=O)[C@@H]2CCCN2C(=O)c2ccc([N+](=O)[O-])cc21
> 100 µM (inactive)
CCOC(=O)c1cc(Sc2ccc(N)c(C(=O)OCC)c2)ccc1N
> 100 µM (inactive)
C=C(C)[C@@]12C[C@H](OC(=O)[C@H](O)[C@@H](NC(=O)c3ccccc3)c3ccccc3)C(C)=C1[C@@H](OC(C)=O)C(=O)[C@@]1(C)C([C@@H]2OC(=O)c2cc(F)cc(F)c2)C2(OC(C)=O)CO[C@@H]2C[C@@H]1O (stereo partly specified)
0.0201 µM (active)
COc1ccc(C2NC3=C(CCCC3)C3(C#N)C(=O)N=C(N)C23C#N)cc1 (stereo unspecified)
> 100 µM (inactive)
COc1cc(C2SCC(=O)N2c2ccc(-c3ccc(-n4c(-c5ccccc5)nc5ccccc5c4=O)cc3)cc2)ccc1O (stereo unspecified)
47.8 µM (inactive)

-- ask GI50 of `CCOC(=O)C(=O)Nc1ccc(C)cc1C` on HCT-116?
-- reply > 100 µM (inactive)

-- ask GI50 of CCN(CC)CC(=O)N1CCc2c([nH]c3ccccc23)C1c1cccnc1 (stereo unspecified) on HCT-116?
-- reply > 100 µM (inactive)

-- ask GI50 of `O=C(Nc1ccccc1-c1nn(CN2CCNCC2)c(=S)n(CN2CCNCC2)c1=O)C(F)(F)F` on HCT-116?
-- reply 17.8 µM (inactive)

-- ask GI50 of N#CC12CC(C=O)=C(N)C1(C#N)CC(C=O)=C2N (stereo unspecified) on HCT-116?
-- reply 47.3 µM (inactive)

-- ask GI50 of `Cc1ccc(S(=O)(=O)N/N=C/C2(c3ccccc3)c3ccccc3-c3ccccc32)cc1` on HCT-116?
-- reply 7.08 µM (inactive)

Origin of values: ChEMBL document CHEMBL1201862
